- TESTED ON: cAMP and cAMP-inhibited cGMP 3',5'-cyclic phosphodiesterase 10A (Homo sapiens)
- Sequence (Q9Y233 whole entry): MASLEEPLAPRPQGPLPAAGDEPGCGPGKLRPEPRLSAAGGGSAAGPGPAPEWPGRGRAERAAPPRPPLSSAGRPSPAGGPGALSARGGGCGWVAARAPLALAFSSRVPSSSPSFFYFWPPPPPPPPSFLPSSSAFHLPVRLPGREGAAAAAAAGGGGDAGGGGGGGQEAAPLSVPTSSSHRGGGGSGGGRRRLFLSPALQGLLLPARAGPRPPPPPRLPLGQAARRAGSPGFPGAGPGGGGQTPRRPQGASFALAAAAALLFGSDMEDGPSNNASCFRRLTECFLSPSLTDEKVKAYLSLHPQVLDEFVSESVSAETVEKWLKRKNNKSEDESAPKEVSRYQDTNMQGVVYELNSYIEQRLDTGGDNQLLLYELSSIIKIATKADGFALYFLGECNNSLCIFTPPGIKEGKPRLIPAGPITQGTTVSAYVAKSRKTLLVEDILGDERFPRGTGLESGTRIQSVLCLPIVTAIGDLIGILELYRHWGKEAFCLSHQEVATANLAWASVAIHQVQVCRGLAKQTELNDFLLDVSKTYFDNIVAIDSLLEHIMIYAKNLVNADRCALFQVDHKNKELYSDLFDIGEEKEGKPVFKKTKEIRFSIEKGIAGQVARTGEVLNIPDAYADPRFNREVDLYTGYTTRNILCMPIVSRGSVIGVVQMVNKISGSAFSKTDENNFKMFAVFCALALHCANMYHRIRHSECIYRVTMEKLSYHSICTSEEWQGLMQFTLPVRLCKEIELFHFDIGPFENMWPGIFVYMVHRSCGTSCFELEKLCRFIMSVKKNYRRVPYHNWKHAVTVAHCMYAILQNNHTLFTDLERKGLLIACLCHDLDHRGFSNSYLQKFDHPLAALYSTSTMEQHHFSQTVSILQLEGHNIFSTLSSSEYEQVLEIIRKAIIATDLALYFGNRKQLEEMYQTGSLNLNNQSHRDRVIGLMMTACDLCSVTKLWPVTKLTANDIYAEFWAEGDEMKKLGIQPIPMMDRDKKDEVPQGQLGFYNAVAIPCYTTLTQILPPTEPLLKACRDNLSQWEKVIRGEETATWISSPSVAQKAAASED
- ASSAY EXPLANATION: Inhibition of human recombinant full length PDE10A2 expressed in SF9 cells infected with baculovirus expression system using cAMP as substrate incubated 30 mins prior to substrate addition measured after 60 mins by HTRF method
pIC50: −log10 of the molar value.
Catalogue of compounds with associated pIC50

{"SMILES STRING": "c1ccc(-n2ccc3ccc(OCc4ccc5ccccc5n4)cc32)cc1", "pIC50": "< 6.00"}
{"SMILES STRING": "c1ccc2nc(COc3ccc4ncn(C5CCCCC5)c4c3)ccc2c1", "pIC50": "< 6.00"}
{"SMILES STRING": "c1ccc(-n2cnc3ccc(OCc4ccc5ccccc5n4)cc32)cc1", "pIC50": 6.51}
{"SMILES STRING": "c1ccc2nc(COc3ccc4ncn(Cc5ccncc5)c4c3)ccc2c1", "pIC50": "< 6.00"}
{"SMILES STRING": "c1cnc(-n2cnc3ccc(OCc4ccc5ccccc5n4)cc32)nc1", "pIC50": "< 6.00"}
{"SMILES STRING": "c1ccc(-n2ncc3ccc(OCc4ccc5ccccc5n4)cc32)cc1", "pIC50": "< 6.00"}

Can you look up the measured pIC50 of `c1ccc(-c2noc3ccc(OCc4ccc5ccccc5n4)cc23)cc1` for me?
< 6.00

Can you look up the measured pIC50 of `c1ccc2nc(COc3ccc4ncn(-c5ccnnc5)c4c3)ccc2c1` for me?
< 6.00
